These data points were gathered from patent US9181259B2.

test-target: NK1 receptor (Homo sapiens)
Construct: Measurement of NK1 Receptor Mediated Intracellular [Ca^2+]; Mobilization in U251 MG Cells Using FLIPR; endogenous in cells; host or cells: U251 MG cells
Sequence (P25103 whole entry): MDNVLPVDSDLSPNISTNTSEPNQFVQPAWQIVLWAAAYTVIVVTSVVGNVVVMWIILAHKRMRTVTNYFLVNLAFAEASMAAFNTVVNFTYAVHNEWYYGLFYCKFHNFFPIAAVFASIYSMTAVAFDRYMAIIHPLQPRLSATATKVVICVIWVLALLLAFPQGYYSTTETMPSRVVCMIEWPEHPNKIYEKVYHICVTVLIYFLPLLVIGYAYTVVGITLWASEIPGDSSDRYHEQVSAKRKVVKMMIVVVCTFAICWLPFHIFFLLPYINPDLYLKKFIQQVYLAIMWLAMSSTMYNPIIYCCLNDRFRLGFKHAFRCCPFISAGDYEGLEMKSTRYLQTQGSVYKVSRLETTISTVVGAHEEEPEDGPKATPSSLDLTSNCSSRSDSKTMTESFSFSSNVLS
measurement-protocol: NK1 receptor mediated intracellular [Ca2+] mobilization in U251 MG cells using FLIPR
Assay type: cell-based
assay-setup: antagonist potency against Substance P (EC80), normalized to 100 nM Aprepitant, read-out: U251MG (FLIPR pIC50) (converted)
endpoint: IC50

For Cc1ccccc1C1C2CC(CN3CCOCC3)C(=O)N2CCN1C(=O)N(C)Cc1cc(C(F)(F)F)cc(C(F)(F)F)c1 (single isomer, unassigned) [Compound 39] , what is its reported IC50?
2.88 nM

For `Cc1cc([C@@H](C)N(C)C(=O)N2CCN3C(=O)C4(CCOCC4)C[C@H]3[C@@H]2c2ccccc2C)cc(C(F)(F)F)c1` , what is its reported IC50?
0.0251 nM

For Cc1ccccc1C1C2CC3(CCN(C)CC3)C(=O)N2CCN1C(=O)N(C)Cc1cc(C(F)(F)F)cc(C(F)(F)F)c1 (single isomer, unassigned) [Compound 47] , what is its reported IC50?
0.0933 nM

For `Cc1cc([C@@H](C)N(C)C(=O)N2CCN3C(=O)CC[C@H]3[C@@H]2c2ccccc2C)cc(C(F)(F)F)c1` , what is its reported IC50?
0.107 nM

For Cc1ccccc1C1C2CC(CO)C(=O)N2CCN1C(=O)N(C)Cc1cc(C(F)(F)F)cc(C(F)(F)F)c1 (single isomer, unassigned) [Compound 21] , what is its reported IC50?
0.0407 nM

For CCC(c1cc(C(F)(F)F)cc(C(F)(F)F)c1)N(C)C(=O)N1CCN2C(=O)C(CCO)(CCO)C[C@H]2[C@@H]1c1ccccc1C (stereo partly drawn) , what is its reported IC50?
0.132 nM

For Cc1cc(C)cc(CN(C)C(=O)N2CCN3C(=O)CCC3C2c2ccccc2C)c1 (single isomer, unassigned) [Compound 2] , what is its reported IC50?
77.6 nM

For `Cc1ccccc1[C@H]1[C@@H]2CC(CCO)(CCO)C(=O)N2CCN1C(=O)N(C)[C@@H](C)c1cc(C(F)(F)F)cc(C(F)(F)F)c1` , what is its reported IC50?
0.166 nM

For `Cc1ccccc1[C@H]1[C@@H]2CC3(CCOCC3)C(=O)N2CCN1C(=O)N(C)[C@H](C)c1cc(C(F)(F)F)cc(C(F)(F)F)c1` , what is its reported IC50?
0.126 nM

For `Cc1cc([C@@H](CO)N(C)C(=O)N2CCN3C(=O)C(CCO)(CCO)C[C@H]3[C@@H]2c2ccccc2C)cc(C(F)(F)F)c1` , what is its reported IC50?
0.0617 nM

For `Cc1ccccc1[C@H]1[C@@H]2CC(CCO)(CCO)C(=O)N2CCN1C(=O)N(C)Cc1cccc(C(F)(F)F)c1` , what is its reported IC50?
0.468 nM

For Cc1ccccc1C1C2CCC(=O)N2CCN1C(=O)N(C)Cc1cccc(C(F)(F)F)c1 (single isomer, unassigned) [Compound 5] , what is its reported IC50?
7.41 nM
